Value source: ChEMBL document CHEMBL4138146

Test system: A549
Experimental details: Growth inhibition of human A549/ATCC cells assessed as cell growth at 10 uM incubated for 48 hrs by sulforhodamine B assay relative to control
Type: functional
Setup conditions: A549, 48 h, read-out: Activity
Label key: rule met means growth at 10 µM under 90%; rule not met means growth at 10 µM of 90% or more.

Query block: In the record for CCCCOc1nc2c(C)cccc2cc1C1CNC(=O)c2ccccc2N1 (stereo unspecified) , is growth at 10 µM less than 90%?
Result block: rule met

Query block: In the record for O=C1CC(c2cc3ccccc3[nH]c2=O)Nc2ccccc21 (stereo unspecified) , is growth at 10 µM less than 90%?
Result block: rule not met

Query block: In the record for CCCCn1c(=O)c(C2CNC(=O)c3ccccc3N2)cc2ccccc21 (stereo unspecified) , is growth at 10 µM less than 90%?
Result block: rule not met

Query block: In the record for CCCCOc1nc2ccc(OC)cc2cc1C1CNC(=O)c2ccccc2N1 (stereo unspecified) , is growth at 10 µM less than 90%?
Result block: rule met

* * *

System: HCC 2998
Experimental details: Growth inhibition of human HCC2998 cells assessed as cell growth at 10 uM incubated for 48 hrs by sulforhodamine B assay relative to control
Type: functional
Setup conditions: HCC 2998, 48 h, read-out: Activity
Provide the recorded growth at 10 µM for the entries that follow.
Please state the figure in %; there is no need to write the unit.

Query block: Please look up its growth at 10 µM: O=C1CC(c2cc3ccccc3[nH]c2=O)Nc2ccccc21 (stereo unspecified)
Result block: 103

Query block: Please look up its growth at 10 µM: O=C1NCC(c2cc3ccccc3[nH]c2=O)Nc2ccccc21 (stereo unspecified)
Result block: 104

Query block: Please look up its growth at 10 µM: O=C1CC(c2cc3ccc4ccccc4c3[nH]c2=O)Nc2ccccc21 (stereo unspecified)
Result block: 108

Query block: Please look up its growth at 10 µM: Cc1ccc2[nH]c(=O)c(C3CNC(=O)c4ccccc4N3)cc2c1 (stereo unspecified)
Result block: 107

Query block: Please look up its growth at 10 µM: O=C1NCC(c2cc3ccc(Cl)cc3[nH]c2=O)Nc2ccccc21 (stereo unspecified)
Result block: 105

Query block: Please look up its growth at 10 µM: CCCCn1c(=O)c(C2CNC(=O)c3ccccc3N2)cc2ccccc21 (stereo unspecified)
Result block: 108

* * *

System: OVCAR-8
Experimental details: Growth inhibition of human OVCAR8 cells assessed as cell growth at 10 uM incubated for 48 hrs by sulforhodamine B assay relative to control
Format: functional
Setup conditions: OVCAR-8, 48 h, read-out: Activity
Provide the recorded growth at 10 µM for the entries that follow.
Please state the figure in %; there is no need to write the unit.

Query block: Please look up its growth at 10 µM: O=C1CC(c2cc3ccc4ccccc4c3[nH]c2=O)Nc2ccccc21 (stereo unspecified)
Result block: 110

Query block: Please look up its growth at 10 µM: O=C1NCC(c2cc3ccccc3[nH]c2=O)Nc2ccccc21 (stereo unspecified)
Result block: 103

Query block: Please look up its growth at 10 µM: CCCCOc1nc2ccccc2cc1C1CNC(=O)c2ccccc2N1 (stereo unspecified)
Result block: 22.4

Query block: Please look up its growth at 10 µM: Cc1ccc2[nH]c(=O)c(C3CNC(=O)c4ccccc4N3)cc2c1 (stereo unspecified)
Result block: 113

Query block: Please look up its growth at 10 µM: CCCCn1c(=O)c(C2CNC(=O)c3ccccc3N2)cc2ccccc21 (stereo unspecified)
Result block: 114

Query block: Please look up its growth at 10 µM: CCCCOc1nc2c(C)cccc2cc1C1CNC(=O)c2ccccc2N1 (stereo unspecified)
Result block: 81.2

* * *

Tested on: HCT-116
Experimental details: Growth inhibition of human HCT116 cells assessed as cell growth at 10 uM incubated for 48 hrs by sulforhodamine B assay relative to control
Format: functional
Setup conditions: HCT-116, 48 h, read-out: Activity
Test readout: growth at 10 µM (%)
Please state the figure in %; there is no need to write the unit.

Query block: Checklist item: growth at 10 µM tested on HCT-116, entry CCCCOc1nc2c(C)cccc2cc1C1CNC(=O)c2ccccc2N1 (configuration not stated) , value?
Result block: 45.9

Query block: Checklist item: growth at 10 µM tested on HCT-116, entry O=C1NCC(c2cc3ccc4ccccc4c3[nH]c2=O)Nc2ccccc21 (configuration not stated) , value?
Result block: 44.1

Query block: Checklist item: growth at 10 µM tested on HCT-116, entry O=C1CC(c2cc3ccc4ccccc4c3[nH]c2=O)Nc2ccccc21 (configuration not stated) , value?
Result block: 93

Query block: Checklist item: growth at 10 µM tested on HCT-116, entry CCCCOc1nc2ccc(OC)cc2cc1C1CNC(=O)c2ccccc2N1 (configuration not stated) , value?
Result block: 85.3

Query block: Checklist item: growth at 10 µM tested on HCT-116, entry CCCCn1c(=O)c(C2CNC(=O)c3ccccc3N2)cc2ccc(Cl)cc21 (configuration not stated) , value?
Result block: 73

Query block: Checklist item: growth at 10 µM tested on HCT-116, entry Cc1ccc2[nH]c(=O)c(C3CNC(=O)c4ccccc4N3)cc2c1 (configuration not stated) , value?
Result block: 106

Query block: Checklist item: growth at 10 µM tested on HCT-116, entry O=C1NCC(c2cc3ccccc3[nH]c2=O)Nc2ccccc21 (configuration not stated) , value?
Result block: 92.6

Query block: Checklist item: growth at 10 µM tested on HCT-116, entry CCCCOc1nc2ccccc2cc1C1CNC(=O)c2ccccc2N1 (configuration not stated) , value?
Result block: 15.6

Query block: Checklist item: growth at 10 µM tested on HCT-116, entry CCCCn1c(=O)c(C2CNC(=O)c3ccccc3N2)cc2ccccc21 (configuration not stated) , value?
Result block: 94.9

Query block: Checklist item: growth at 10 µM tested on HCT-116, entry Cc1cccc2cc(C3CNC(=O)c4ccccc4N3)c(=O)[nH]c12 (configuration not stated) , value?
Result block: 95.5

Query block: Checklist item: growth at 10 µM tested on HCT-116, entry O=C1CC(c2cc3ccccc3[nH]c2=O)Nc2ccccc21 (configuration not stated) , value?
Result block: 91.6

Query block: Checklist item: growth at 10 µM tested on HCT-116, entry O=C1NCC(c2cc3ccc(Cl)cc3[nH]c2=O)Nc2ccccc21 (configuration not stated) , value?
Result block: 87.8

* * *

System: K562
Experimental details: Growth inhibition of human K562 cells assessed as cell growth at 10 uM incubated for 48 hrs by sulforhodamine B assay relative to control
Format: functional
Setup conditions: K562, 48 h, read-out: Activity
Provide the recorded growth at 10 µM for the entries that follow.
Please state the figure in %; there is no need to write the unit.

Query block: Please look up its growth at 10 µM: O=C1NCC(c2cc3ccc(Cl)cc3[nH]c2=O)Nc2ccccc21 (stereo unspecified)
Result block: 124

Query block: Please look up its growth at 10 µM: Cc1cccc2cc(C3CNC(=O)c4ccccc4N3)c(=O)[nH]c12 (stereo unspecified)
Result block: 118

Query block: Please look up its growth at 10 µM: O=C1NCC(c2cc3ccccc3[nH]c2=O)Nc2ccccc21 (stereo unspecified)
Result block: 90.2

Query block: Please look up its growth at 10 µM: O=C1CC(c2cc3ccc4ccccc4c3[nH]c2=O)Nc2ccccc21 (stereo unspecified)
Result block: 87.2

Query block: Please look up its growth at 10 µM: Cc1ccc2[nH]c(=O)c(C3CNC(=O)c4ccccc4N3)cc2c1 (stereo unspecified)
Result block: 111

Query block: Please look up its growth at 10 µM: CCCCOc1nc2c(C)cccc2cc1C1CNC(=O)c2ccccc2N1 (stereo unspecified)
Result block: 19

Query block: Please look up its growth at 10 µM: CCCCn1c(=O)c(C2CNC(=O)c3ccccc3N2)cc2ccc(Cl)cc21 (stereo unspecified)
Result block: 87.9

Query block: Please look up its growth at 10 µM: CCCCOc1nc2ccccc2cc1C1CNC(=O)c2ccccc2N1 (stereo unspecified)
Result block: 12.8

Query block: Please look up its growth at 10 µM: O=C1CC(c2cc3ccccc3[nH]c2=O)Nc2ccccc21 (stereo unspecified)
Result block: 102

Query block: Please look up its growth at 10 µM: O=C1NCC(c2cc3ccc4ccccc4c3[nH]c2=O)Nc2ccccc21 (stereo unspecified)
Result block: 97.3

Query block: Please look up its growth at 10 µM: CCCCn1c(=O)c(C2CNC(=O)c3ccccc3N2)cc2ccccc21 (stereo unspecified)
Result block: 99.3

* * *

Tested on: SR
Experimental details: Growth inhibition of human SR cells assessed as cell growth at 10 uM incubated for 48 hrs by sulforhodamine B assay relative to control
Format: functional
Setup conditions: read-out: Activity
Provide the recorded growth at 10 µM for the entries that follow.
Please state the figure in %; there is no need to write the unit.

Query block: Checklist item: growth at 10 µM tested on SR, entry O=C1CC(c2cc3ccccc3[nH]c2=O)Nc2ccccc21 (stereo unspecified) , value?
Result block: 95.4

Query block: Checklist item: growth at 10 µM tested on SR, entry CCCCOc1nc2c(C)cccc2cc1C1CNC(=O)c2ccccc2N1 (stereo unspecified) , value?
Result block: 18.1

Query block: Checklist item: growth at 10 µM tested on SR, entry CCCCn1c(=O)c(C2CNC(=O)c3ccccc3N2)cc2ccccc21 (stereo unspecified) , value?
Result block: 102

Query block: Checklist item: growth at 10 µM tested on SR, entry O=C1NCC(c2cc3ccccc3[nH]c2=O)Nc2ccccc21 (stereo unspecified) , value?
Result block: 100

Query block: Checklist item: growth at 10 µM tested on SR, entry CCCCn1c(=O)c(C2CNC(=O)c3ccccc3N2)cc2ccc(Cl)cc21 (stereo unspecified) , value?
Result block: 59.8

Query block: Checklist item: growth at 10 µM tested on SR, entry O=C1NCC(c2cc3ccc(Cl)cc3[nH]c2=O)Nc2ccccc21 (stereo unspecified) , value?
Result block: 115

Query block: Checklist item: growth at 10 µM tested on SR, entry O=C1NCC(c2cc3ccc4ccccc4c3[nH]c2=O)Nc2ccccc21 (stereo unspecified) , value?
Result block: 56.4

Query block: Checklist item: growth at 10 µM tested on SR, entry Cc1cccc2cc(C3CNC(=O)c4ccccc4N3)c(=O)[nH]c12 (stereo unspecified) , value?
Result block: 110

Query block: Checklist item: growth at 10 µM tested on SR, entry Cc1ccc2[nH]c(=O)c(C3CNC(=O)c4ccccc4N3)cc2c1 (stereo unspecified) , value?
Result block: 133

Query block: Checklist item: growth at 10 µM tested on SR, entry CCCCOc1nc2ccccc2cc1C1CNC(=O)c2ccccc2N1 (stereo unspecified) , value?
Result block: 19.8

Query block: Checklist item: growth at 10 µM tested on SR, entry O=C1CC(c2cc3ccc4ccccc4c3[nH]c2=O)Nc2ccccc21 (stereo unspecified) , value?
Result block: 11.1
